src = ChEMBL document CHEMBL1130981

molecular target: DNA gyrase (Escherichia coli, UniProt P0AES4+P0AES6); test: Inhibition of DNA gyrase supercoiling in Escherichia coli.
Quantity: IC50 (µM)

I = O=c1oc2c(O)c(O)ccc2c2cc(O)c(O)cc12
II = O=c1oc2c(F)c(F)ccc2c2cc(O)c(O)cc12
Incoming: Between I and II , which one shows the larger IC50 value? # respond with the chosen item's label
Outgoing: I

* * *

target: DNA gyrase (Escherichia coli, UniProt P0AES4+P0AES6); experiment: Inhibition of DNA gyrase supercoiling in Escherichia coli.
Recorded measurements of IC50, one per entry

[[record]]
compound_structure_string = "Cc1cc(O)c(O)c2oc(=O)c3ccc(F)cc3c12"
target = "DNA gyrase (Escherichia coli, UniProt P0AES4+P0AES6)"
observed = "> 1920 µM"

[[record]]
compound_structure_string = "O=c1oc2ccccc2c2ccccc12"
target = "DNA gyrase (Escherichia coli, UniProt P0AES4+P0AES6)"
observed = "> 2550 µM"


Now consider a different compound.
Known value: DNA gyrase (Escherichia coli, UniProt P0AES4+P0AES6) IC50 of the compound "O=c1oc2c(O)c(O)ccc2c2ccccc12" equals > 2190 µM
